Data credit: ChEMBL document CHEMBL1141575

- test description: Photohemolysis in human RBC at 375 nM under exposure to light for 10 mins
- Type: ADME, cell-based, Erythrocyte
- test settings: human red blood cells, read-out: Activity
metric: hemolysis at 10 min, 0.375 µM (%)
Give the value in % but do not write % after it.

Q: Look up and state reported hemolysis at 10 min, 0.375 µM for CC1=C(CCC(=O)O)c2cc3nc(cc4[nH]c(cc5[nH]c(cc1n2)c(C)c5C(C)O)c(C)c4C(C)O)C(C)=C3CCC(=O)O (stereo unspecified) [HAEMAPORPHYRIN]
Ans: 100

###

Here the recorded IC50 is given for each entry.
- test description: Cytotoxicity against human 2780.9S cells under deem light after 96 hrs by MTT assay
- Type: functional, cell-based
Give the value in µM but do not write µM after it.

Check out these entries, answers already filled in.
compound="C=Cc1c(C)c2cc3nc(c(CC(=O)OC)c4[nH]c(cc5nc(cc1[nH]2)C(C)=C5CC)c(C)c4C(=O)NCCO)C(CCC(=O)OC)C3C (stereo not given) [PHEOPHORBIDE A ETHANOLAMIDE]" readout_value=35
compound=COc1cccc2c1C(=O)c1c(O)c3c(c(O)c1C2=O)C[C@@](O)(C(=O)CO)C[C@@H]3O[C@H]1C[C@H](N)[C@H](O)[C@H](C)O1 readout_value=15

Query compound follows.
Q: Look up and state reported IC50 for CCCOC(C)C1=C(C)c2cc3[nH]c(cc4nc(cc5[nH]c(cc1n2)c(C)c5CCC(=O)NCCO)C(CCC(=O)NCCO)=C4C)c(C)c3C(C)OCCC (stereo not given) [HEMATOPORPHYRIN PROPYLETHER ETHANOLAMIDE]
Ans: 16
